Data credit: PubChem BioAssay (NCI)

- Test system: RXF 393 renal
- assay-details: NCI tumour cell line growth inhibition, 48 h
experimental-endpoint: TGI

As a guide, the following entries are already answered.
CCOC(O)C(F)(F)F (stereo unspecified) | > 100 µM
Cn1nc(-c2ccccc2)c(N=[N+]=[N-])cc1=O | > 100 µM
N#CC1=C(N)NC(=S)NC12Nc1ccccc1O2 (stereo unspecified) | > 100 µM
CC(C)=CC(=O)Oc1ccc([N+](=O)[O-])cc1 | > 100 µM

What measured TGI goes with O=C1CCCCCCCC/C=C/CCC(c2ccco2)O1 (stereo unspecified) ? > 100 µM

What measured TGI goes with O=C(O)CCC(C(=O)O)N1C(=O)c2ccccc2C1=O (stereo unspecified) ? > 100 µM

What measured TGI goes with CCOC(=O)CN=C1Nc2ccccc2C(=O)N2CSCC12 (stereo unspecified) ? > 100 µM

What measured TGI goes with CCOP(=O)(CC1CC(O)(CNc2cc(Cl)nc(N)n2)C1)OCC (stereo unspecified) ? > 100 µM

What measured TGI goes with NNC(=O)Cc1cccnc1 ? > 100 µM

What measured TGI goes with N#Cc1ccc(OC(=O)c2ccc(N=C(N)N)cc2)cc1 ? > 100 µM

What measured TGI goes with CC1=NC2(CCCCC2)N(Cl)C(=O)C1SC#N (stereo unspecified) ? 32.3 µM

What measured TGI goes with C=C(Cl)COC(=O)Nc1cccc(Cl)c1 ? 77.6 µM

What measured TGI goes with O=C(Nc1ccc(-n2cc(-c3ccncc3)c(-c3ccc(Cl)c(O)c3)n2)cc1)Nc1cc(C(F)(F)F)cc(C(F)(F)F)c1 ? 3.45 µM

What measured TGI goes with Fc1ccc(C2NC(=S)NC3=C2CCOc2c3ccc3ccccc23)cc1 (stereo unspecified) ? > 100 µM

What measured TGI goes with OCCN1CN(c2nc(N3CN(CCO)C3)nc(N3CN(CCO)C3)n2)C1 ? 44.8 µM

What measured TGI goes with COc1cc(Cl)cc(-c2nn(C(=O)NCCN3CCN(C)CC3)cc2-c2ccncc2)c1 ? 18.1 µM
